# Test system: BT-549 breast
# procedure-text: NCI-60 one-dose screen, 48 h (100 = growth as untreated, 0 = no growth, -100 = all killed)
# test-conditions: 10 µM unless noted
Compounds without any hit were thinned out: in the full panel of roughly 83,000, 20% have a hit.
Decision: growth compared against 70%; not below it gives criterion met, below it gives criterion not met.

Has Cn1cc(-c2nn3cc(-c4cccnc4)nc3s2)c2ccccc21 a recorded growth greater than or equal to 70%? criterion not met

Is it the case that O=C(CCCCCCN1CC(=O)N2[C@@H](c3ccc(Cl)c(F)c3)c3[nH]c4ccccc4c3C[C@H]2C1=O)NO has growth reaching or exceeding 70%? criterion met

Decide: growth of CC1(C)CC[C@]2(C(=O)O)CC[C@]3(C)C(=CCC4[C@@]5(C)C[C@@H](O)[C@@H]6OC(c7cccc([N+](=O)[O-])c7)OC[C@@]6(C)C5CC[C@]43C)C2C1 (stereo not given in full) >= 70%? criterion met

Kindly determine if growth recorded for O=C1c2c(c3c4cccnc4[nH]c3c3ccc4ccccc4c23)C(=O)N1CCN1CCNCC1 is above or exactly 70%. criterion met

API: above_or_equal(metric=growth, cutoff=70%) for item C=CCn1c(SCC(=O)Nc2cccc(C(=O)/C=C/c3cccc([N+](=O)[O-])c3)c2)nc2ccccc2c1=O criterion met

Decide: growth of C=C(C)[C@@H]1CC[C@]2(C(=O)NCCCN(CCC#N)CCC#N)CC[C@]3(C)[C@H](CC[C@@H]4[C@@]5(C)CCC(=O)C(C)(C)[C@@H]5CC[C@]43C)[C@@H]12 >= 70%? criterion met

Is it the case that Cn1ccnc1C(=O)/C=C/c1ccc(C(=O)Nc2ccc(NC(=O)CCNC(=O)c3csc(Br)n3)cc2)cc1 has growth reaching or exceeding 70%? criterion not met

Evaluate CN(C)C(=O)C1=NC(CO)C(=O)N(c2ccc(Cl)cc2)N1 (stereo not given) : growth at minimum 70%? criterion met

Quick check: does CCN1C(=O)N(CC)C2SC(N/N=C/C=C/c3ccccc3OC)=NC21 (stereo not given) have growth greater than or equal to 70%? criterion not met

Check this compound for growth at or above 70%: O=C(NCCCNc1cc(-c2cn(-c3ccccc3)nc2-c2cccc(O)c2)ccn1)Nc1cc(C(F)(F)F)cc(C(F)(F)F)c1 criterion met

Kindly determine if growth recorded for Cc1cc(Cl)cc(NS(=O)(=O)c2ccc(-c3cnc(C4CC4)o3)cc2)c1 is above or exactly 70%. criterion not met

Decide: is the reported value of growth for CN1CCN(c2ccc3c(c2)nc(NNC(=O)c2ccncn2)c2cccn23)CC1 equal to or greater than 70%? criterion not met

Decide: is the reported value of growth for IP(CCCSc1n(Cc2ccc3ccccc3c2)c(-c2ccccc2)c(-c2ccccc2)[n+]1Cc1ccc2ccccc2c1)(c1ccccc1)(c1ccccc1)c1ccccc1 equal to or greater than 70%? criterion not met

I'd appreciate it if you could say whether COc1cc(/C=N/n2cnc3oc(-c4ccccc4)cc3c2=N)cc(CN2CCCCC2)c1O has growth at least equal to 70%. criterion not met

In plain terms: is recorded growth at least 70% for NS(=O)(=O)c1ccc(Nc2nc(N/N=C/c3ccc(C(F)(F)F)cc3)nc(Nc3ccccc3)n2)cc1 ? criterion not met

For this compound, is measured growth 70% or higher? C[C@@H]1C[C@H]2C(=O)OCC(NC(=O)[C@H](Cc3cc(F)cc(F)c3)NC(=O)Nc3ccc(Cl)cc3F)C(=O)N3CCC[C@H]3C(=O)N3CCCC[C@H]3C(=O)N[C@@H](C)C(=O)N2C1 (stereo not given in full) criterion not met

API: above_or_equal(metric=growth, cutoff=70%) for item O=S(=O)(Nc1ccc(I)c(Cl)c1)c1ccc(-c2cnc(C3CC3)o2)cc1 criterion not met

// inclusive: growth at least 70%? input: COc1cc2cc(Oc3ccc(NC(=O)Nc4cccc(C(F)(F)F)c4)cc3)c(C)nc2cc1OCCN(C)C criterion met

Is growth at least 70%? Consider CCCCCCNC(=O)Oc1ccc(/C(=C(/C)c2ccccc2)c2ccc(OCCN(C)C)cc2)cc1 criterion met

Tell me whether growth is at least 70% here: CC1=CC(=O)CC(C)(C)[C@@]1(O)/C=C/C(C)=C\C(=O)O criterion not met

# bool: growth of COc1ccc(S(=O)(=O)NCCCNc2nccc(-n3cnc4ccccc43)n2)cc1 >= 70% criterion met

Is growth for COc1ccc(Cn2cc3c(c2-c2ccccc2)CCCc2cnoc2-3)cc1[N+](=O)[O-] at or above 70%? criterion met

Please indicate if the recorded growth for CS(=O)(=O)c1ccc2c(c1)c1c(n2Cc2ccc(Cl)cc2)CCCC1 meets or exceeds 70%. criterion met

Does growth meet or surpass 70% for Cc1nn(-c2ccc(Br)cc2)c2nc(CCl)[nH]c(=O)c12 ? criterion met

Is growth at least 70%? Consider COc1cc(C(=O)c2cc(C(C)=O)c3c4ccccc4ccn23)cc(OC)c1OC criterion not met

Answer whether growth of C=C(C)[C@@H]1CC[C@]2(C(=O)ON)CC[C@]3(C)[C@H](CC[C@@H]4[C@@]5(C)C/C(=C/c6ccc(Br)cc6)C(=O)C(C)(C)[C@@H]5CC[C@]43C)[C@@H]12 is greater than or equal to 70%. criterion met

Is the recorded value of growth equal to or greater than 70% for this compound? C#C[C@]1(O)CC[C@H]2[C@@H]3CC=C4c5sc(-c6cccc(F)c6)nc5CC[C@]4(C)[C@H]3CC[C@@]21C criterion met

Is growth at least 70%? Consider Nc1nc(-c2cccc([N+](=O)[O-])c2)c(N=Nc2cccc(Cl)c2)s1 criterion not met

====

# Test system: LOX IMVI melanoma
# procedure-text: NCI-60 one-dose screen, 48 h (100 = growth as untreated, 0 = no growth, -100 = all killed)
# test-conditions: 10 µM unless noted
The panel holds about 83,000 compounds, 20% with a hit somewhere; the sample as a whole holds those more often.
measure: growth (%)
Supply the numeric figure in %, leaving out any unit text.

Give the measured growth for O=C(CCCCCCN1CC(=O)N2[C@@H](c3cc(F)cc(F)c3)c3[nH]c4ccccc4c3C[C@H]2C1=O)NO 19.6

Give me measured growth, please, for this compound: CCN1C(=O)N(CC)C2SC(N/N=C/c3ccc(OC)cc3)=NC21 (stereo not given) 3.58

Give the reported value of growth for this record: CC1OC(O[C@@H]2[C@H](O)C(CO)OC(O[C@H]3COC(O[C@H]4CC[C@]5(C)[C@H]6CC[C@]78OC[C@@]9(CCC(C)(C)C[C@H]97)[C@H](O)C[C@@]8(C)[C@]6(C)CC[C@H]5C4(C)C)[C@@H](OC4OC(CO)[C@@H](O)[C@@H](O)[C@@H]4O)[C@@H]3O)[C@H]2OC2OC[C@@H](O)[C@@H](O)[C@@H]2O)[C@@H](O)[C@@H](O)[C@H]1O (stereo not given in full) -82.7

Quickly give me recorded growth for CCN1CCN(Cc2ccc(C(=O)Nc3nc4ccc(Oc5ccnc(C(=O)NC)c5)cc4s3)cc2C(F)(F)F)CC1 -11.8

Indicate the recorded growth value for this compound: CCCCCCCCNC(=O)c1ccc(Cn2c(CCCC)nc3c(N)nc4ccccc4c32)cc1 -86.3

====

# Tested on: MOLT-4 leukemia
# procedure-text: NCI-60 one-dose screen, 48 h (100 = growth as untreated, 0 = no growth, -100 = all killed)
# test-conditions: 10 µM unless noted
This is part of a sample that, as a whole, favours compounds with a hit. Of some 83,000 tested, about 20% had one in any assay.
measure: growth (%)
Your answer is read as %, so omit the unit and give the number.

Give the measured growth for CN(c1ccc(F)cc1)S(=O)(=O)c1ccc(-c2cnc(C3CC3)o2)cc1 25.6

Return value of growth for input O=C1c2cc(Br)ccc2-n2c1nc1cc(Br)ccc1c2=O , no commentary. 67.7

Tell me measured growth for O=C(CN1C(=O)CSC1=O)Nc1ccc(C(=O)/C=C/c2cc3ccccc3nc2Cl)cc1 please. 36.4

# return recorded growth for input CCOC(=O)Nc1cccc(-n2cnc3cc(-c4ccc(O)cc4)ccc32)c1 10.6

====

# System: OVCAR-5 ovarian
# procedure-text: NCI-60 one-dose screen, 48 h (100 = growth as untreated, 0 = no growth, -100 = all killed)
# test-conditions: 10 µM unless noted
The panel holds about 83,000 compounds, 20% with a hit somewhere; the sample as a whole holds those more often.
measure: growth (%)
Field format: number, assumed %, no unit text.

In one line, give reported growth of the entry COc1ccc(Cn2cc3c(c2-c2cc(OC)c(OC)c(OC)c2)CCCc2cnoc2-3)cc1N . 38.2

Read off the recorded growth for COc1cc(/C=C2\SC(=O)NC2=O)ccc1OCC(=O)Nc1ccc(C(=O)/C=C/c2cc3ccccc3nc2Cl)cc1 109

Give the value of growth reported for the following: Cc1nn(-c2ccccc2)c2nc(CCl)[nH]c(=O)c12 112

Give the measured growth for O=C(Nc1cccc(Cl)c1)Nc1nc2ccc([N+](=O)[O-])cc2s1 26.5

Specify reported growth for the compound shown: Oc1ccc(CSc2nnc(-c3ccccc3)n2-c2ccccc2)c2cccnc12 43.7

Please supply the value of reported growth for the item C[C@@H]1C[C@H]2C(=O)OCC(NC(=O)[C@H](Cc3cc(F)cc(F)c3)NC(=O)Nc3ccc(Cl)cc3F)C(=O)N3CCC[C@H]3C(=O)N3CCCC[C@H]3C(=O)N[C@@H](C)C(=O)N2C1 (some centres undefined) 31.9

Identify growth associated with the compound COc1ccccc1N1CCN(C2=NN=C(c3cccc(Cl)c3)c3ccccc3C2)CC1 40.4

Consider the compound N#C/C(=C\c1ccc(N2CCCCC2)cc1)C(=O)Nc1sc2c(c1C#N)CCC2 . State its measured growth. 93.7

Report growth for Cc1ccc(NC(=O)c2cccc(CN3CCN(C)CC3)c2)cc1Oc1ccc(-c2[nH]nc3ncnc(N)c23)cc1 80.8
